This section presents compounds with their documented inhibition values.
STUDY SYSTEM: Serine/threonine-protein kinase Nek9 (Homo sapiens) (UniProt Q8TD19);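 also: each value is a mean percent inhibition of NEK9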
Sequence (Q8TD19 whole entry): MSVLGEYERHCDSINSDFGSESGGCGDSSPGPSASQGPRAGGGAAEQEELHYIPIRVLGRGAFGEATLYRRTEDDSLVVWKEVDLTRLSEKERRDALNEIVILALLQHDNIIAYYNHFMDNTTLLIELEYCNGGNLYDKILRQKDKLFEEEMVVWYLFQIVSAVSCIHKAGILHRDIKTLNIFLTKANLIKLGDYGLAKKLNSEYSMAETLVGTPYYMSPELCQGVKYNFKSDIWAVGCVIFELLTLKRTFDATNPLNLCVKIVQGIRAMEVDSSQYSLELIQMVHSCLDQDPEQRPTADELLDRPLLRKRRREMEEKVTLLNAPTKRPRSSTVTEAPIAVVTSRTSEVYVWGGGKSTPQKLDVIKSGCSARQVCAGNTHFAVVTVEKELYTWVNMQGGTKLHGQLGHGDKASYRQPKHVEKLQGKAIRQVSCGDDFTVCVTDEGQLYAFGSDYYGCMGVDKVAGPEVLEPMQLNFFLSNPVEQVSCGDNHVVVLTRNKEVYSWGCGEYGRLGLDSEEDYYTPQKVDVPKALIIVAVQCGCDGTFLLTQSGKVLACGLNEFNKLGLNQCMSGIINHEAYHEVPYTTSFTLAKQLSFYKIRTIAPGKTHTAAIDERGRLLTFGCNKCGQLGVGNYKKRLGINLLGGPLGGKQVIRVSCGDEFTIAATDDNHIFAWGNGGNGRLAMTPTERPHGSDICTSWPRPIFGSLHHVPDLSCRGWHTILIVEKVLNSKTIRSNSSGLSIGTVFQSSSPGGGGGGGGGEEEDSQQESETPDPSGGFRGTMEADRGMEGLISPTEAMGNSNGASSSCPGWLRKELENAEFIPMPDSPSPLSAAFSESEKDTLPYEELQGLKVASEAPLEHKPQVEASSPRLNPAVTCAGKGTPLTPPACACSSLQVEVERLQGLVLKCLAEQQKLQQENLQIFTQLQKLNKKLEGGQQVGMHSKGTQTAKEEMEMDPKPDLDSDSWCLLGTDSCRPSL
EXPERIMENTAL PARAMETERS: at 1 µM
Numbers only here, please. The scale is %.

Example compounds with recorded inhibition:
| SMILES STRING | inhibition [%] |
| --- | --- |
| CCc1nn2ncccc2c1-c1ccnc(NC2CC2)n1 | 9.21 |
| CCN1CCC(CC(=O)Nc2n[nH]c3nnc(-c4cccc(F)c4F)cc23)CC1 | -3.93 |
| CN(C)CCOc1ccc(-c2nc(-c3ccncc3)c(-c3ccc4c(c3)CC/C4=N\O)[nH]2)cc1 | 4.4 |
| CC(=O)Nc1cccc(C#Cc2cncnc2Nc2ccc(OCc3cccc(F)c3)c(Cl)c2)c1 | 2.42 |

Alright, here's another compound for you.
Problem: State the measured inhibition (Serine/threonine-protein kinase Nek9 (Homo sapiens) (UniProt Q8TD19)) of NC(=O)c1sc(-n2cnc3ccc(C(F)(F)F)cc32)cc1OCc1ccccc1Br
Solution: 28.9

---

STUDY SYSTEM: Serine/threonine-protein kinase DCLK2 (Homo sapiens);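 also: each value is a mean percent inhibition of DCLK2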
EXPERIMENTAL PARAMETERS: at 1 µM
READOUT LABEL: inhibition

Problem: Output measured inhibition for this item: COc1ccc(CNC(=O)c2ccc(-c3cc(-c4nnc(C)o4)ccc3C)cc2)cc1
Solution: 2.89%

---

STUDY SYSTEM: Aurora kinase C (Homo sapiens);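 also: reported value is a mean inhibition of Aurora-C from the GSK PKIS screening panel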
EXPERIMENTAL PARAMETERS: at 1 µM
Reported inhibition values for a set of compounds
Reply numerically in %, unit not repeated.

Field: example entries. Status: answers known.
| SMILES STRING | READOUT LABEL | UNIT OF MEASURE | MEAS VALUE |
| --- | --- | --- | --- |
| [O-][S+]1CCN(Cc2ccc(-c3ccc4ncnc(Nc5ccc(OCc6cccc(F)c6)c(Cl)c5)c4c3)o2)CC1 | inhibition | % | 6.06 |
| COc1cccc(-n2ncc3c(N/N=C/c4ccc(F)cc4)ncnc32)c1 | inhibition | % | 3.29 |
| CCN1CCC(CC(=O)Nc2n[nH]c3nnc(-c4cccc(F)c4F)cc23)CC1 | inhibition | % | 4.58 |
| CCOc1ccc2c(-c3ccnc(Nc4cccc(C(F)(F)F)c4)n3)cnn2n1 | inhibition | % | 12.5 |
| Clc1ccc(-c2nn3ncccc3c2-c2ccnc(Nc3ccccc3)n2)cc1 | inhibition | % | 36.1 |
| COc1ccc(-c2nn3ncccc3c2-c2ccnc(Nc3ccc4c(c3)OCCO4)n2)cc1 | inhibition | % | 46.8 |
| COc1cc(Nc2nccc(Nc3ccc4c(C)n[nH]c4c3)n2)cc(OC)c1OC | inhibition | % | 79.7 |
| CN1CCC(n2cnc(-c3ccc(F)cc3)c2-c2ccnc(Nc3ccccc3)n2)CC1 | inhibition | % | -2.98 |

Problem: Answer with the recorded inhibition for the compound listed here: c1ccc(-c2nc3n(c2-c2ccc4c(c2)OCO4)CCC3)nc1
Solution: -3.23

Problem: Item Fc1ccc(-c2cc(-c3c[nH]nc3-c3ccccn3)ccn2)cc1 : provide inhibition
Solution: -4.87

Problem: Fill in inhibition for record CN1CCC(n2cnc(-c3ccc(F)cc3)c2-c2ccnc(N)n2)CC1
Solution: 1.25

Problem: Hello, please tell me recorded inhibition for this one: CCN(CC)S(=O)(=O)c1ccc(OC)c(Nc2ncc(-c3ccccc3)o2)c1
Solution: -4.34

Problem: Given the compound Fc1ccc(-c2nn3ccccc3c2-c2ccncc2)cc1 , write its reported inhibition.
Solution: 2.01

Problem: In one line, give reported inhibition of the entry CC(C)COC(=O)c1ccc2c(c1)/C(=C/Nc1ccc(S(N)(=O)=O)cc1)C(=O)N2 .
Solution: 82.9

Problem: Tell me inhibition reported for COC(=O)Nc1nc2ccc(S(=O)(=O)c3ccc(NC(=O)Nc4cc(C(F)(F)F)ccc4F)cc3)cc2[nH]1
Solution: 14.1

Problem: Please report inhibition for the following compound: COc1cc(N2CCN(C(C)C)CC2)ccc1Nc1nc(Nc2ccc(F)cc2C(N)=O)c2cc[nH]c2n1
Solution: 2.67
